testedSystem: Fyn (UniProt P06241)
Sequence (P06241 whole entry, looked up): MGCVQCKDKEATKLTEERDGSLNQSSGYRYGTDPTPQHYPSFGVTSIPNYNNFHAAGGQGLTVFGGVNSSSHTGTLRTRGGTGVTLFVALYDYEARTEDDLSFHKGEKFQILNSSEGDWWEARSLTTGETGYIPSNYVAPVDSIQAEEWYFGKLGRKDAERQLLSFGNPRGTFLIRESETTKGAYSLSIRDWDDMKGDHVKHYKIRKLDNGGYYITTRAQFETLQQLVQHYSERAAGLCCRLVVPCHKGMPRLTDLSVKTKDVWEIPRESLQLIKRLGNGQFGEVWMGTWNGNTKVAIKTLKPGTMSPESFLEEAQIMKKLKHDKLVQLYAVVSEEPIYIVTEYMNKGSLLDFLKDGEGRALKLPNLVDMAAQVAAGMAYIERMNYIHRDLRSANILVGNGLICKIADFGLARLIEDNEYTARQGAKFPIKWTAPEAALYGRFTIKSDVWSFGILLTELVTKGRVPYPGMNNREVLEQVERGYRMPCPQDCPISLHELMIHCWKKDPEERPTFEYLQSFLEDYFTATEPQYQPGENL
methodSummary: phosphorylation enrichment, bacterial display (enrichment ratio); higher = better substrate or ligand; peptides without Tyr show the background;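 also: 11-residue human phosphosite peptides and single-mutation variants displayed on the E. coli surface, counted by deep sequencing, each peptide's frequency after selection divided by its frequency in the unselected input library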;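 also: frequency after pTyr selection over input frequency; kinase dosed for 20-30% of maximal phosphorylation in three min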
Use 0.5 as the dividing line for phosphorylation enrichment, with the line itself on the Y side and lower values as N.

Task: Is phosphorylation enrichment for ASTHVYQIMNH [ITK_Y588] at or above 0.5?
Output: Y

Task: Is phosphorylation enrichment for ARMTNCGLPRY [TSPAN12_Y138_Y138C] at or above 0.5?
Output: N

Task: Is phosphorylation enrichment for DDEESYENVPR [FCRL3_Y722_N721S] at or above 0.5?
Output: Y

Task: Is phosphorylation enrichment for LNPLIYSLRNK [OR5R1_Y290] at or above 0.5?
Output: Y

Task: Is phosphorylation enrichment for SDVCMYRKNIY [SYNE2_Y570] at or above 0.5?
Output: N

Task: Is phosphorylation enrichment for DKMEAYNIDET [TEKT4_Y210] at or above 0.5?
Output: Y
